Item-by-item account of Kb
assay_target: Substance-P receptor (Cavia porcellus, UniProt P30547)
Sequence (P30547 whole entry): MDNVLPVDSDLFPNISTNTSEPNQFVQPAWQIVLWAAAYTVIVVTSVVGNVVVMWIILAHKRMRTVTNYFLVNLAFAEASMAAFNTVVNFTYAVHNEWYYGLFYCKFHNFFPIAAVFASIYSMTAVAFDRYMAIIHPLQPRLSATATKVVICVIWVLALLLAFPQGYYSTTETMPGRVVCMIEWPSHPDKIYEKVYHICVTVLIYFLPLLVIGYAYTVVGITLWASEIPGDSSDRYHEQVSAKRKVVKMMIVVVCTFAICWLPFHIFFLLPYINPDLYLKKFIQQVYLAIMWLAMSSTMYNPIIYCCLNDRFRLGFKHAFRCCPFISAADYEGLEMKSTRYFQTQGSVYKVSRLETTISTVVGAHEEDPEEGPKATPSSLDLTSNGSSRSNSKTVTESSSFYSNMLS
assay_protocol: In vitro functional NK1 activity as inhibition of guinea pig bronchoconstriction
Type: tissue-based, Lung
cond: read-out: pA2 (converted)
Hi! Could you send only the number? It should be in nM, unit omitted.

INSERT INTO assay_data (compound, unit_string, measured_result) VALUES
  ('CO/N=C(\CN(C)C(=O)c1cc(Cl)cc(Cl)c1)[C@@H](CCN1CCC(N2CCCC(CC(N)=O)C2=O)CC1)c1ccc(Cl)c(Cl)c1 (stereo not given in full)', 'nM', 20),
  ('CO/N=C(\CN(C)C(=O)c1cc(Cl)cc(Cl)c1)[C@@H](CCN1CCC(N2CCCC(CC(=O)N3CCOCC3)C2=O)CC1)c1ccc(Cl)c(Cl)c1 (stereo not given in full)', 'nM', 6.31),
  ('CO/N=C(\CN(C)C(=O)c1cc(Cl)cc(Cl)c1)[C@H](CCN1CCC(N2CCCC(CC(=O)N3CC(O)C3)C2=O)CC1)c1ccc(Cl)c(Cl)c1 (stereo not given in full)', 'nM', 10),
  ('CO/N=C(\CN(C)C(=O)c1cc(Cl)cc(Cl)c1)[C@H](CCN1CCC(N2CCCC(CC(N)=O)C2=O)CC1)c1ccc(Cl)c(Cl)c1 (stereo not given in full)', 'nM', 10);

Query: // lookup Kb for CO/N=C(\CN(C)C(=O)c1cc(Cl)cc(Cl)c1)[C@H](CCN1CCC(N2CCCC(CC(=O)N(C)C)C2=O)CC1)c1ccc(Cl)c(Cl)c1 (stereo not given in full)
Response: 12.6

Query: Next compound: CO/N=C(\CN(C)C(=O)c1cc(Cl)cc(Cl)c1)[C@@H](CCN1CCC(N2CCCC(CC(=O)N(C)C)C2=O)CC1)c1ccc(Cl)c(Cl)c1 (stereo not given in full)
Response: 10

Query: Next compound: `CO/N=C(\CN(C)C(=O)c1cc(Cl)cc(Cl)c1)[C@H](CCN1CCC(N2CCCCC2=O)CC1)c1ccc(Cl)c(Cl)c1`
Response: 10

Query: Next compound: CNC(=O)CC1CCCN(C2CCN(CC[C@@H](/C(CN(C)C(=O)c3cc(Cl)cc(Cl)c3)=N/OC)c3ccc(Cl)c(Cl)c3)CC2)C1=O (stereo not given in full)
Response: 12.6

Query: Next compound: CO/N=C(\CN(C)C(=O)c1cc(Cl)cc(Cl)c1)[C@H](CCN1CCC(N2CCCC(CC(=O)N3CCOCC3)C2=O)CC1)c1ccc(Cl)c(Cl)c1 (stereo not given in full)
Response: 15.8

Query: Next compound: CNC(=O)CC1CCCN(C2CCN(CC[C@H](/C(CN(C)C(=O)c3cc(Cl)cc(Cl)c3)=N/OC)c3ccc(Cl)c(Cl)c3)CC2)C1=O (stereo not given in full)
Response: 10
